# target-system: T1, HLA-A*24:02 (human)
# T1 construct: whole, on cells; MHC class I molecule, empty until peptide is added; detected with FITC anti-HLA-A24 antibody 17A10
# protocol: MHC class I stabilization on T2-A24 cells, flow cytometry, 100 ug/mL peptide
MFI (solvent ratio) by entry:

Would you please look over these solved cases?
binder	MFI (solvent ratio)
SYFKNRGIYTL [FAM83B-derived peptide F335_11]	2.3 ratio to solvent
NYILKNVQKV [FAM83B-derived peptide F62_10]	1.6 ratio to solvent
NYIEPHYKEW [FAM83B-derived peptide F18_10]	3.2 ratio to solvent
SYGRSSPLL [FAM83B-derived peptide F971_9]	1.8 ratio to solvent
HGLEAYQEFLV [FAM83B-derived peptide F38_11]	3.1 ratio to solvent
FLQQRMPTL [FAM83B-derived peptide F476_9]	2.6 ratio to solvent
LLDESNFNHFL [FAM83B-derived peptide F179_11]	1.1 ratio to solvent
NLDLGWPYV [FAM83B-derived peptide F103_9]	1.1 ratio to solvent
HYKEWYRVAI [FAM83B-derived peptide F23_10]	3 ratio to solvent
RFLQQRMPTL [FAM83B-derived peptide F475_10]	3 ratio to solvent

The binder identified as WYRVAIDILI [FAM83B-derived peptide F27_10] registered its MFI (solvent ratio) at 3.2 ratio to solvent

The binder identified as KVIALVMDI [FAM83B-derived peptide F148_9] registered its MFI (solvent ratio) at 1.6 ratio to solvent

The binder identified as PFCKIESSI [FAM83B-derived peptide F939_9] registered its MFI (solvent ratio) at 2.7 ratio to solvent

The binder identified as FLVQERVSDFL [FAM83B-derived peptide F46_11] registered its MFI (solvent ratio) at 1.6 ratio to solvent

The binder identified as LVQERVSDFL [FAM83B-derived peptide F47_10] registered its MFI (solvent ratio) at 1.5 ratio to solvent

The binder identified as VMYGSYSYMW [FAM83B-derived peptide F239_10] registered its MFI (solvent ratio) at 2.2 ratio to solvent
